Test system: XIP peptide (Xip251-270)
assay-overview: compounds binding XIP fragment 251-270 – biochemical, small-molecule microarray, fluorescence 635/667 nm, 0.5 µg/mL protein, primary screen (AID 1183)
measurement-setup: fluorescence 635 nm, higher = more signal
So basically: composite z-score at 0.7 or higher? That is met. Lower than 0.7? That is not met.

• CN1C(=O)C2C=CC(C(O)c3ccc(F)cc3)N(N3CCCCC3)C2C1=O (configuration not stated) = not met
• CC1CC/C=C\[C@H]2OC34C=CCN(c5ccc(Cl)cc5)C(=O)[C@H]3N(C(CO)C(C)C)C(=O)[C@]4(C)C2C(=O)O1 (some centres not stated) = not met
• CN(C)CCCNC(=O)[C@@]1(Cc2ccccc2I)c2ccccc2C(=O)N(Cc2ccccc2Cl)[C@H]1c1ccc(CO)cc1 = met
• CC[C@@H]1[C@@H]2C3C(=O)N(CC)C(=O)C3CC(=O)[C@@H]2[C@H](c2ccc(C)cc2)N1S(=O)(=O)c1ccc(C)cc1 (some centres not stated) = met
• COc1ccc([Si](C)(C)[C@@H]2[C@@H](CCO)O[C@]3(C(=O)N(Cc4ccccc4)c4ccc(N5C(=O)COc6ccccc65)cc43)[C@H]2C)cc1 = not met
• C#CCOC(=O)N[C@H](C=CCCCC)c1ccccc1 = not met

These data points were gathered from PubChem BioAssay.
